Tested on: K562
Assay: PrestoBlue cell viability, K562
Format: cell-based, Human
Settings: Homo sapiens; leukemia, K562, 48 h
Hi there, I'd appreciate the recorded IC50 for every entry that follows.
Numbers only, in nM.

State IC50 (K562) of COc1cc([C@@H]2C3=C(COC3=O)Cc3cc4c(cc32)OCO4)cc(OC)c1OCc1ccc(F)cc1 [example 6] . 247

Continuing:
State IC50 (K562) of COc1cc([C@@H]2C3=C(COC3=O)Cc3cc4c(cc32)OCO4)cc(OC)c1OCC1CCCCC1 [example 4] . 398

====

Test system: WI-38
Assay: PrestoBlue toxicity test, normal cells WI-38
Type: cell-based, Human
Conditions: Homo sapiens, WI-38, 48 h
pIC50: −log10 of the molar value.
Hi there, I'd appreciate the recorded pIC50 for every entry that follows.

Field: example entries. Status: answers known.
State pIC50 (WI-38) of COc1cc([C@@H]2c3cc4c(cc3[C@@H](O[C@@H]3O[C@@H]5CO[C@@H](C)O[C@H]5[C@H](O)[C@H]3O)[C@H]3COC(=O)[C@H]23)OCO4)cc(OC)c1O [Etoposide, reference compound] . < 4.30

State pIC50 (WI-38) of `COc1cc([C@@H]2C3=C(COC3=O)Cc3cc4c(cc32)OCO4)cc(OC)c1OC(C)=O` . ≤ 4.30

Now let's try a different one.
State pIC50 (WI-38) of `COc1cc([C@@H]2C3=C(COC3=O)Cc3cc4c(cc32)OCO4)cc(OC)c1OCc1ccc(C(F)(F)F)cc1` . ≤ 4.30
